system: primary human hepatic stellate cells (donor 1); assay: scaled lipid accumulation score (0 = DMSO-like, 1 = nortriptyline-like); higher = stronger HSC inactivation (lipid re-accumulation), active = hit call of the paper; details: library stock concentration: 10 mM; 48 h
Where a name gives a salt, the structure may show the parent alone. Out of some 5,800 compounds screened, about 620 (11%) showed activity.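 The calls were made as follows: active = score above a cut-off or among the top three wells of a plate; in these data no inactive exceeds 0.85.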 Many of the other results were omitted from the sample, so actives are more common in it than they were.
Labels: 1 (active), -1 (inactive)

1. COC(=O)c1ccc2c(c1)NC(=O)/C2=C(\Nc1ccc(N(C)C(=O)CN2CCN(C)CC2)cc1)c1ccccc1 : 1
2. COc1cc2c(N3CCN(C(=O)Nc4ccc(OC(C)C)cc4)CC3)ncnc2cc1OCCCN1CCCCC1 : 1
3. Cc1ccc(Nc2cc(-c3cccc(N4C(=O)c5ccccc5C4=O)c3)ncn2)cc1NS(C)(=O)=O : -1
4. COc1ccc2nc3n[nH]c(C)c3c(NCCOCCO)c2c1 : -1
5. Nc1[nH]nc2nc3ccccc3nc12 : -1
6. Cc1scc2c1N(C(=O)CN1CCN(C)CC1)c1ccccc1NC2=O [Telenzepine hydrochloride] : -1
7. COc1cc2ncnc(N3CCN(C(=O)Nc4ccc(Oc5ccccc5)cc4)CC3)c2cc1OC : -1
8. CCn1cc(NC(=S)Nc2cc(Cl)ccc2OC)c(C(N)=O)n1 : -1
9. CC(C)n1c(/C=C/C(O)CC(O)CC(=O)O)c(-c2ccc(F)cc2)c2ccccc21 (centres undefined) [Fluvastatin Sodium] : -1
10. N[C@H](C(=O)O)[C@H](Cc1ccccc1)C(=O)O [L-Beta-threo-benzyl-aspartate] : -1
11. C#Cc1cccc(Nc2ncnc3cc(OC)c(OCCCCCCC(=O)NO)cc23)c1 : -1
12. CCOC(=O)C1(CCCCCCOc2ccc(Cl)cc2)CO1 (centres undefined) : -1
13. COc1cc2c(Nc3ccc(NC(=O)c4ccccc4)cc3)ncnc2cc1OCCCN1CCOCC1 : 1
14. Nc1ncnc2c1ncn2[C@@H]1O[C@H](COP(=O)(O)CP(=O)(O)OP(=O)(O)O)[C@H](O)C1O (stereo partly drawn) [alpha,beta-Methylene adenosine 5'-triphosphate dilithium] : -1
15. C1CCN2C[C@@H]3C[C@@H](CN4CCCC[C@@H]34)[C@H]2C1 [Sparteine sulfate] : -1
